# STUDY_SYSTEM: T1, Mtb DnaG (DNA primase) (Mycobacterium tuberculosis H37Rv, UniProt P9WNW1 1-639)
# T1 sequence: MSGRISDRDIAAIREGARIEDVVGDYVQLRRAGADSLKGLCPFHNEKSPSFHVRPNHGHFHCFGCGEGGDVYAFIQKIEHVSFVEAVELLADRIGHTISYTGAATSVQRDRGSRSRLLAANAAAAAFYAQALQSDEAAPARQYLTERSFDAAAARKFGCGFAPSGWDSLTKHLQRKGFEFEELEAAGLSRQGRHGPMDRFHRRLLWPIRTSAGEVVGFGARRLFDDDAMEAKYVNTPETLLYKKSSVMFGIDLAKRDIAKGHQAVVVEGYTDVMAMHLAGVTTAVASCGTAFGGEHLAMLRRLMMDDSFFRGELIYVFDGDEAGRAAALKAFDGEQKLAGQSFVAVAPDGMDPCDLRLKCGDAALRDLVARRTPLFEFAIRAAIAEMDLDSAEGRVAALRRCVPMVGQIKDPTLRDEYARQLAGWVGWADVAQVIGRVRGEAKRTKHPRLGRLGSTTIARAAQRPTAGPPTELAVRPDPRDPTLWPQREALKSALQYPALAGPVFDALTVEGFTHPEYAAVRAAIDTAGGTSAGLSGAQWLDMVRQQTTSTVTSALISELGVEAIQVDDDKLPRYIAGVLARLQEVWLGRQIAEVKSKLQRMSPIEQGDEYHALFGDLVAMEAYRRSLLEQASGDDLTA
# EXPERIMENT_DESCRIPTION: fluorescence anisotropy
PROPERTY_MEASURED: Kd (nM)
Give the number; nM is assumed, so skip it.

[Q] May I ask what Kd has been recorded for CCGAATCAGTCCGACGACGCATCAGCAC (ssDNA) [28-mer ssDNA] ?
[A] 36
